The origin of these recorded values is ChEMBL document CHEMBL1201862.

# System: DMS-273
# procedureSummary: NCI tumour cell line growth inhibition, 48 h
The source made the active and inactive calls. No stated cut-off is given here; in the data, active = GI50 up to about 1.1 µM and inactive = higher.
Assign a class; possible classes are 1 for active, 0 for inactive

Consider the following illustrative entries.
>>> group("N#Cc1cccc(C2C(=O)c3ccc(C(=O)c4ccc5c(c4)C(=O)N(c4ccc(Oc6ccc(N7C(=O)c8ccc(C(=O)c9ccc%10c(c9)C(=O)N(c9cccc(C#N)c9)C%10=O)cc8C7=O)cc6)cc4)C5=O)cc3C2=O)c1 (stereo not given)")
0
>>> group("C(=C1/CCCCC([n+]2ccccc2)=N1)/c1ccccc1")
0
>>> group("COC(=O)C1CC(c2ccc(Cl)cc2)=NO1 (stereo not given)")
0
>>> group("COc1ccc2cccc(C(=N)c3ccc(C)c4c3CCC4)c2c1")
0

## Task Outcome logged for Cc1ccc(-n2c3nc(=O)n(C)c(=O)c-3nc3ccccc32)cc1 in this assay:
## Result 0

## Task For O=C1OC(c2ccccc2)=N/C1=C/NC(CO)C(=O)O (stereo not given) then?
## Result 0

## Task Same question for Nc1nc(O)c2[nH]nnc2n1 please.
## Result 1

## Task // same read-out, input: CCC1CN2CCc3cc(OC)c(OC)cc3C2CC1CC1c2cc(OC)c(OC)cc2CCN1C(=O)C(N)Cc1ccccc1.[O-][Cl+3]([O-])([O-])O (stereo not given)
## Result 0

---

# Tested on: SK-MEL-2
# procedureSummary: NCI tumour cell line growth inhibition, 48 h
Activity calls are given as the source filed them. Cut-off read from the data, not from the text of the source: active = GI50 up to about 1.1 µM and inactive = higher. Where a SMILES comes first, the peptide text is derived from it. [ ]: non-standard residue; d: D form. The star is where a group is joined. Bn2Val = CC(C)[C@@H](C(=O)*)N(Cc1ccccc1)Cc1ccccc1; NHPiperonyl = c1cc2c(cc1CN*)OCO2; NMeV = CN[C@H](C(=O)O)C(C)C; dNMeA = CN[C@H](C)C(=O)O
Output constraint: value belongs to active, inactive

>>> group("CCOC(=O)CON=c1c2ccccc2ccc2ccccc12")
"inactive"
>>> group("O=c1c2cc(I)ccc2nc(SCc2n[nH]c(=S)o2)n1Cc1ccccc1")
"inactive"
>>> group("CCOC(=O)CCCn1cc(C(=O)OC)nn1")
"inactive"

## Task What call does the record list for CCOC(=O)C(CC/C=C\c1ccccc1)N1CCC[C@H]1C(=O)OC (stereo partly drawn) ?
## Result inactive

## Task Then this molecule: CC(C)[C@H](NC(=O)[C@H](C(C)C)N(Cc1ccccc1)Cc1ccccc1)C(=O)N(C)[C@H](C(=O)N1CCC[C@H]1C(=O)N(C)[C@H](C)C(=O)NCc1ccc2c(c1)OCO2)C(C)C (Bn2Val-V[NMeV]P[dNMeA]-NHPiperonyl)
## Result inactive

## Task // next record O=C1CSC(/C=C/c2ccccc2)N1c1ccc(-c2ccc(-n3c(-c4ccccc4)nc4ccccc4c3=O)cc2)cc1 (stereo not drawn)
## Result inactive

## Task Follow-up entry: C=CC[C@H](C[C@H](C[C@H](C[C@H](C[C@H](C[C@H](C[C@H](C[C@H](C[C@H](C[C@H](CCCCC)OC)OC)OC)OC)OC)OC)OC)OC)OC)OC
## Result inactive

## Task Also need NC(=O)c1ncn(C2CCC(CP(=O)(O)O)C2)c1N (stereo not drawn) , thanks.
## Result inactive

## Task Lookup CCCCCCCCCCCCCCCCP(=O)(O)OCC(N)C(=O)O (stereo not drawn)
## Result inactive

## Task Check CC(C)(Cl)C(Br)CCC(Br)(CCl)C(Cl)CBr (stereo not drawn) too.
## Result inactive

## Task What do we get for CC1CC(=O)c2c(ccc3c2C(=O)c2cccc(O)c2C3=O)C1 (stereo not drawn) ?
## Result inactive

## Task Another molecule to look at: COC(=O)C1(C(=O)OC)CC(=O)c2cc3c(cc2-c2c(cc(OC)c(OC)c2OC)C1)OCO3
## Result inactive

## Task // same read-out, input: CC(=O)NC(=O)/N=C1\NCCC(=O)N1CCc1c[nH]c2ccccc12
## Result inactive

## Task Also check Cc1ccc(NC(=O)/C(=N\NC(N)=S)C(C#N)c2ccccc2C)cc1C (stereo not drawn)
## Result inactive

## Task Try this molecule next: C1=CC=C2NCCCCCCC/N=C3/C=CC=CC=C3NCCCCCCC/N=C\2C=C1
## Result inactive

## Task Next entry: COc1cc([C@@H]2c3cc4c(cc3C[C@H]3COC(=O)[C@@H]32)OCO4)cc2c1OCO2
## Result active

## Task Next up: CC1=CC(=O)CC(C)(C)C1/C=C/C(C)=C/C=C/C(C)=C/C=C/C=C(C)/C=C/C=C(C)/C=C/C1=C(C)CC(O)CC1(C)C (stereo not drawn)
## Result inactive

## Task Next molecule up: O=C1C(/N=N/c2ccc(-c3nc4ccccc4o3)cc2)NC(=S)N1c1ccccc1 (stereo not drawn)
## Result inactive

## Task Then what about the molecule Cc1nn(-c2ccccc2)c2c1C(c1ccc(Cl)cc1)NC(=S)N2 (stereo not drawn) ?
## Result inactive

## Task What do we get for N=C(N)NS(=O)(=O)c1ccc(NC(=O)c2cccc3c(NNc4ccc(C(=O)O)cc4)c4ccccc4nc23)cc1 ?
## Result inactive

## Task Repeat with COc1cc(Cn2c3c(c4c(CN(C)C)c(O)ccc42)C(=O)c2ccccc2C3=O)cc(OC)c1
## Result inactive

## Task Try this molecule too: O=C(Nc1nnc(-c2ccccc2)o1)C(SC(=S)N1CCCCC1)c1ccccc1 (stereo not drawn)
## Result inactive

## Task Now consider CCCCN(CCCC)CCCCNc1c(C)cnc2cc(Cl)ccc12 .
## Result inactive

---

# System: SK-OV-3
# procedureSummary: NCI tumour cell line growth inhibition, 48 h
The source made the active and inactive calls. Rule as the data show it: active = GI50 up to about 1.1 µM and inactive = higher.
A correct response names exactly one class from 1 (active), 0 (inactive)

Reference set (3 entries):
>>> group("O=c1[nH]/c(=C/c2ccc(OCc3ccccc3)cn2)c(=O)[nH]/c1=C/c1ccccc1")
1
>>> group("CCOC(=O)C(C#N)C1=CC(=O)C(=O)c2ccc(OC)cc21 (stereo not given)")
0
>>> group("Cc1cc(/N=N/c2c(O)ccc3ccccc23)ccc1/N=N/c1cccc([N+](C)(C)C)c1")
0

## Task // return assay outcome for C=CC[C@H](C[C@H](C[C@H](C[C@H](C[C@H](C[C@H](C[C@H](C[C@H](C[C@H](C[C@H](CCCCC)OC)OC)OC)OC)OC)OC)OC)OC)OC)OC
## Result 0

## Task Now consider Cc1nc2c(nc1C)C(=O)c1cc(O)ccc1C2=O .
## Result 0

---

# Test system: K562
# procedureSummary: NCI tumour cell line growth inhibition, 48 h
Calls of active or inactive are those of the source. No stated cut-off is given here; in the data, active = GI50 up to about 1.1 µM and inactive = higher.
For each entry below, report its GI50 value.

Examples with answers:
>>> datavalue("CC1=NNC(=O)C1C1C(=O)NN=C(c2c[nH]c3ccccc23)C1Br (stereo not drawn)")
"31.7 µM (inactive)"
>>> datavalue("CCN(CC)CCCC(C)Nc1ccnc2cc3ccccc3cc12 (stereo not drawn)")
"7 µM (inactive)"

Next, consider the following compound.
## Task # get_value(readout='GI50', item= CSC1=C(c2ccc(Cl)cc2)SC(N2CCCCC2)N1c1ccc([N+](=O)[O-])cc1 (stereo not drawn) )
## Result 33 µM (inactive)

---

# Test system: SN12C
# procedureSummary: NCI tumour cell line growth inhibition, 48 h
Active and inactive are the calls of the source. No stated cut-off is given here; in the data, active = GI50 up to about 1.1 µM and inactive = higher.
readout: GI50

Some solved entries appear below for comparison.
>>> datavalue("Cc1c(F)c(N)c2c(=O)cc(-c3ccc(NC(=O)CN(C)C)c(F)c3)oc2c1F")
"> 100 µM (inactive)"
>>> datavalue("CCOCc1cc(=O)c2c(OC)cc3c(c2o1)CCC(C)(C)O3")
"> 100 µM (inactive)"
>>> datavalue("Oc1cc(CN2CCOCCOCCOCCOCC2)c(O)cc1CN1CCOCCOCCOCCOCC1")
"> 10 µM (inactive)"
>>> datavalue("NC(=O)c1ncn(C2CCC(CP(=O)(O)O)C2)c1N (stereo not drawn)")
"> 100 µM (inactive)"
>>> datavalue("CN(C)CCNC(=O)c1ccc(C(=O)NCCN(C)C)c2nc3ccccc3cc12")
"0.83 µM (active)"
>>> datavalue("O=C(Nc1nnc(-c2ccccc2)o1)C(SC(=S)N1CCCCC1)c1ccccc1 (stereo not drawn)")
"10.9 µM (inactive)"
>>> datavalue("Cc1cn(C2CC(O)C(COC(N)=O)O2)c(=O)[nH]c1=O (stereo not drawn)")
"> 100 µM (inactive)"
>>> datavalue("CC(=O)N1C(=O)/C(=C\\C(=O)c2ccc(Cl)cc2)c2ccccc21")
"15.3 µM (inactive)"

Report GI50 for each item below.
1. CNCc1cc(OC)ccc1-c1ccc(OC)c(OC)c1OC
2. CCC1CN2CCc3cc(OC)c(OC)cc3C2CC1CC1c2cc(OC)c(OC)cc2CCN1C(=O)C(N)Cc1ccccc1.[O-][Cl+3]([O-])([O-])O (stereo not drawn)
3. O=C(C(=O)N1CCc2ccccc21)c1c[nH]c2ccccc12
4. O[C@H]1[C@H]2c3cc4c(cc3CN3CCC(=C[C@@H]1O)[C@H]23)OCO4
5. O=C(Nn1c(-c2ccccc2)nc2ccccc2c1=O)c1ccc(Cl)cc1

## Result
1. > 100 µM (inactive)
2. 2.35 µM (inactive)
3. > 10 µM (inactive)
4. 1.7 µM (inactive)
5. > 100 µM (inactive)
